From: ChEMBL document CHEMBL1201862

Tested on: COLO 205
Assay: NCI tumour cell line growth inhibition, 48 h
Activity calls are given as the source filed them. Rule as the data show it: active = GI50 up to about 1.1 µM and inactive = higher.
endpoint-name: GI50

- molecule: "CN(CC(=O)O)S(=O)(=O)c1ccc2ccccc2c1"
  data-value: "> 100 µM (inactive)"
- molecule: "COC(=O)C12CCC(C)(C)CC1C1=CCC3C4(C)CC(O)C(O)C(C)(C(=O)OC)C4CCC3(C)C1(CO)CC2 (stereo not drawn)"
  data-value: "15.3 µM (inactive)"
- molecule: "CN(C)CCNC(=O)c1cc([N+](=O)[O-])cn1C"
  data-value: "> 100 µM (inactive)"
